# Tgt: Bcl-xL-Beclin 1 complex (Homo sapiens, UniProt Q07817)
# Construct: made in house
# Sequence (Q07817 whole entry, one chain of several): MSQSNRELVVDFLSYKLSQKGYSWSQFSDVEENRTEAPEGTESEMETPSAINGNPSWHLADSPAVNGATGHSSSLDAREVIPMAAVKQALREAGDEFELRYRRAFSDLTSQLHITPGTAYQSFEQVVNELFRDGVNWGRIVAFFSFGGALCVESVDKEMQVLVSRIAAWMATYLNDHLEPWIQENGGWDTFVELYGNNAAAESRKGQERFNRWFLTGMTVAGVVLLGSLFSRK
# Protocol: Concentration response FP reconfirmation of HTS hits
# Assay type: binding
# Measurement Parameters: read-out: Dose-response (% Inhibition) 40 μM
Where a name gives a salt, the structure may show the parent alone.
Task for the reader: assign each of the following compounds its reported inhibition at 40 µM.
Provide only the numeric value, understood in %.

## Task Write down the reported inhibition at 40 µM of C[n+]1cc2c3c(ccc2c2ccc4cc5c(cc4c21)OCO5)OCO3 [Compound A05, SANGUINARINE SULFATE] , test system: Bcl-xL-Beclin 1 complex (Homo sapiens, UniProt Q07817).
## Result 8.4

## Task Write down the reported inhibition at 40 µM of `O=C1C(Cl)=C(Cl)C(=O)C(Cl)=C1Cl` , test system: Bcl-xL-Beclin 1 complex (Homo sapiens, UniProt Q07817).
## Result 23.4

## Task Write down the reported inhibition at 40 µM of `CCCCCCCCCc1ccc(OCCOCCOCCOCCOCCOCCOCCOCCOCCO)cc1` , test system: Bcl-xL-Beclin 1 complex (Homo sapiens, UniProt Q07817).
## Result 5.3

## Task Write down the reported inhibition at 40 µM of O=C(Nc1ccccc1)c1ccccc1O [Compound A39, SALICYLANILIDE] , test system: Bcl-xL-Beclin 1 complex (Homo sapiens, UniProt Q07817).
## Result 99.7

* * *

Task for the reader: assign each of the following compounds its reported inhibition at 5 µM.
# Tgt: Bcl-xL-Beclin 1 complex (Homo sapiens)
# Construct: made in house
# Protocol: Concentration response FP reconfirmation of HTS hits
# Format: binding
# Measurement Parameters: 5 μM; hits of first screen; read-out: Dose-response (% Inhibition) 5 μM
Where a name gives a salt, the structure may show the parent alone.
Provide only the numeric value, understood in %.

## Task Record request: inhibition at 5 µM value, item CC(C)=CCCC1(C)C=Cc2c(O)c3c(c(CC=C(C)C)c2O1)OC12C(=CCCC1C(C)(C)O[C@@]2(C/C=C(\C)C(=O)O)C(=O)O)C3=O (stereo partly shown)
## Result 2.5

## Task Record request: inhibition at 5 µM value, item O=C1c2c(O)ccc(O)c2C(=O)c2c(NCCNCCO)ccc(NCCNCCO)c21 [Compound A11, MITOXANTRONE HYDROCHLORIDE]
## Result -2.2

## Task Record request: inhibition at 5 µM value, item CCOc1ccc2nc3cc(N)ccc3c(N)c2c1 [Compound A15, ETHACRIDINE LACTATE]
## Result -0.5

## Task Record request: inhibition at 5 µM value, item `OCCN(CCO)c1nc(N2CCCCC2)c2nc(N(CCO)CCO)nc(N3CCCCC3)c2n1`
## Result 10.1

## Task Record request: inhibition at 5 µM value, item `CCCCCc1c2c(cc(O)c1C(=O)O)OC(=O)c1c(cc(OC)cc1C(=O)CCCC)O2`
## Result 1.4

## Task Record request: inhibition at 5 µM value, item CCCCC(CC)CCC(CC(C)C)OS(=O)(=O)O (stereo not shown) [Compound A06, SODIUM TETRADECYL SULFATE]
## Result -7.3

## Task Record request: inhibition at 5 µM value, item `CCCc1nc2c(C)cc(-c3nc4ccccc4n3C)cc2n1Cc1ccc(-c2ccccc2C(=O)O)cc1`
## Result -1.1
